Entries and their pIC50 values follow.
- assayTarget: T1, recombinant integrin α4β1 (R&D Systems, 5397-A3-050) (UniProt P13612 34-970; P05556 21-728)
- T1 construct: bought; coated on the ELISA plate; also called a4b1; α4β1 integrin
- T1 sequence (P13612 34-970, chain 1 of 2): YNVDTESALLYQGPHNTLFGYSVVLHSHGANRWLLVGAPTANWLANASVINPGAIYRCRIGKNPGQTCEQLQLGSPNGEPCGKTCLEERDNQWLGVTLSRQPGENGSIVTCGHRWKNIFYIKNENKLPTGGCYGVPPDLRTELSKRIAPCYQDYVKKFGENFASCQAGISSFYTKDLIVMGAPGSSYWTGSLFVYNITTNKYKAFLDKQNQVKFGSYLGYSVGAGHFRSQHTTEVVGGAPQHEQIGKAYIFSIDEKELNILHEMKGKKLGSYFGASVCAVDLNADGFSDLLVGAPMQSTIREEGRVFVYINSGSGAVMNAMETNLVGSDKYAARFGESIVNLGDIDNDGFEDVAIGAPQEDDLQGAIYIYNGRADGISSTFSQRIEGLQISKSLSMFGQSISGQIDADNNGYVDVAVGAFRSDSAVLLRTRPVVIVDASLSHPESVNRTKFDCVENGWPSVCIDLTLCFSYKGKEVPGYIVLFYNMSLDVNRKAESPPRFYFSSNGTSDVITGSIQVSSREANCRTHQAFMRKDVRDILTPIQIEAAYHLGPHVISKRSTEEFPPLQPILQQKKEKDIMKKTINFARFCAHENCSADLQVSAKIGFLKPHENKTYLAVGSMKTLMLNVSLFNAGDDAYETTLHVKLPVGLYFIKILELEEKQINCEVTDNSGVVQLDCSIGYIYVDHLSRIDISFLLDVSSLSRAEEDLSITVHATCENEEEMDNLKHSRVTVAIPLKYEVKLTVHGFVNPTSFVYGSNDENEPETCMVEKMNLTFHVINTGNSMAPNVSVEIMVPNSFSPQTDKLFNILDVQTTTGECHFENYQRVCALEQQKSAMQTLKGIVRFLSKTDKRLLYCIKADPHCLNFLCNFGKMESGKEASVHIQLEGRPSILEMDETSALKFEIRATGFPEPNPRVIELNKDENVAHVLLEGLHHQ
- T1 sequence (P05556 21-728, chain 2 of 2): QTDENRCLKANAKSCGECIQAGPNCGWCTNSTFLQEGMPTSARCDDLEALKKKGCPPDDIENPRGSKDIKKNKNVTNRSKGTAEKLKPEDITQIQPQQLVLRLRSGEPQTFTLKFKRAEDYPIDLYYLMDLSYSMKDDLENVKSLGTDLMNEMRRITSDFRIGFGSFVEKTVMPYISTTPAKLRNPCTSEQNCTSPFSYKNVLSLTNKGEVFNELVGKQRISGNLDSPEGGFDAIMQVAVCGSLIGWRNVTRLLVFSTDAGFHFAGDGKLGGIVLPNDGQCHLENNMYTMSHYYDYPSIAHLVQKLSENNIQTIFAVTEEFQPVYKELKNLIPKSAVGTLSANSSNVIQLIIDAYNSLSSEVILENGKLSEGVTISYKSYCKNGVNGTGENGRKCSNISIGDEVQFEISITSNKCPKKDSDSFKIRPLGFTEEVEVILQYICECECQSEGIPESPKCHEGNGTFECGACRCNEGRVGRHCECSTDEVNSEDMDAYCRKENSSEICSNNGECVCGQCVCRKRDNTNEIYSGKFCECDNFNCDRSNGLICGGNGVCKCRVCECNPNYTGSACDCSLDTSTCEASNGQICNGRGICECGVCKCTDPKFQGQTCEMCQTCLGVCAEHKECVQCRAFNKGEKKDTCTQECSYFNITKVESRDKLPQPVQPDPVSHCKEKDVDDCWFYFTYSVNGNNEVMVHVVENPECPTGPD
- measurementDescription: competition ELISA, VCAM-Fc on coated α4β1
pIC50: −log10 of the molar value. *1 amine or outer side, *2 acyl side, *3 side chain or, on linkers, in order; H or OH if unused. Bridges are numbered along the chain shown (N, C = ends). Where no end group is shown, it is not given here. [ ]: non-standard residue; d: D form. dTiq = D-1,2,3,4-tetrahydroisoquinoline-1-carboxylic acid, O=C([C@H]1c2ccccc2CCN1[*:1])[*:2]; Pro(trans-4-F) = O=C(O)[C@@H]1C[C@@H](F)CN1; Phe(3-I) = N[C@@H](Cc1cccc(I)c1)C(=O)O; 1Nal = N[C@@H](Cc1cccc2ccccc12)C(=O)O; 2Nal = N[C@@H](Cc1ccc2ccccc2c1)C(=O)O; Chg = N[C@H](C(=O)O)C1CCCCC1; Ac5c = NC1(C(=O)O)CCCC1; Sar = CNCC(=O)O
outcomeMeasure: pIC50

| binder | recordedMeasurement |
| --- | --- |
| [Pro(trans-4-F)]FLDT (bridge N-C; not fully specified (bridges); printed as X Phe Leu Asp Thr, macrocycle of formula (I); R1 H, R2 H, R3 CH3, R4 H, R5 C(O)-NH-tert-Butyl) [Compound No. 45] | 6.62 |
| P[Phe(3-I)][Sar]LDT (bridge N-C; not fully specified (bridges); printed as Pro X1 X2 Leu Asp Thr; also: ring closed by formula (I) linker: R1 H, R2 H, R3 CH3, R4 H, R5 C(O)NH-tBu, macrocycle of formula (I); R1 H, R2 H, R3 CH3, R4 H, R5 C(O)-NH-tert-Butyl) [Compound No. 106] | 5.96 |
| PY[Ac5c]LDT (bridge N-C; not fully specified (bridges); printed as Pro Tyr X Leu Asp Thr; also: ring closed by formula (I) linker: R1 H, R2 H, R3 CH3, R4 H, R5 C(O)NH-tBu, macrocycle of formula (I); R1 H, R2 H, R3 CH3, R4 H, R5 C(O)-NH-tert-Butyl) [Compound No. 104] | 6.30 |
| P[2Nal]LDT (bridge N-C; not fully specified (bridges); also: ring closed by formula (I) linker: R1 H, R2 H, R3 CH3, R4 H, R5 C(O)NH-tBu, macrocycle of formula (I); R1 H, R2 H, R3 CH3, R4 H, R5 C(O)-NH-tert-Butyl) [Compound No. 10] | 7.15 |
| P[dTiq]LDT (bridge (positions not given here); not fully specified (bridges); printed as Pro X Leu Asp Thr; also: N-to-C macrocycle closed by formula (I) linker -NH-CH(CH3)-CH(C(O)NH-tBu)-, macrocycle of formula (I); R1 H, R2 H, R3 CH3, R4 H, R5 C(O)-NH-tert-Butyl) [Compound No. 98] | 7.24 |
| P[1Nal]LDT (bridge (positions not given here); not fully specified (bridges); also: N-to-C macrocycle closed by formula (I) linker -NH-CH(CH3)-CH(C(O)NH-tBu)-, macrocycle of formula (I); R1 H, R2 H, R3 CH3, R4 H, R5 C(O)-NH-tert-Butyl) [Compound No. 9] | 6.97 |
| P[Chg]LDT (bridge N-C; also: macrocycle closed by linker -N(H)-CH(CH3)-CH(C(O)NH-tBu)- joining Pro N and C-terminal carbonyl, macrocycle of formula (I); R1 H, R2 H, R3 CH3, R4 H, R5 C(O)-NH-tert-Butyl) [Compound No. 91] | 5.74 |
